Numbers sourced from PubChem BioAssay AID1159506.

Assay: Identification of proteins required for the processing of the EWS-FLI1 nascent transcript;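 also: robust z of luciferase light less the median z of siRNAs with the same seed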
Details: TC32 Ewing sarcoma NR0B1-luc vs CMV-luc, 48 h; screened at 20 nM (by protocol)
Over roughly 59,000 sequences, the read-out has its median near -0.00055; the lowest 2% begin near -2. The full list was thinned out, with the lowest values kept by preference.
Criterion: seed-corrected z-score strictly less than -0.4. Met: YES. Not met: NO.

UACGUAGAUUUGGAAUUCC against ACO1	NO
ACAGAUCAAAGAACUGUCC against LGALS4	NO
UGCACAUCCUUGUCUAUGC against SGSM2	NO
UUUCUGUCCAGGAAAUCUC against RWDD4	NO
ACAGGCUUUAUCAUACUGC against ZXDC	NO
UUCUCUUCUUUAGUCAGUG against SKA2P1	YES
UUAGUCCAGAGGUUUCAUC against PCAT18	YES
UUGCUGAACAGAUCAGUCC against ELF5	NO
UUCCGACUCGCUGAAGUGC against RPS6KA4	NO
UAGUAUGAAAAUAGAAGUC against BTBD8	NO
UCCAUGGUACUUCUUAUGC against TMEM127	YES

---

Experiment: Identification of proteins required for the processing of the EWS-FLI1 nascent transcript;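 also: robust z of luciferase light less the median z of siRNAs with the same seed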
Conditions: TC32 Ewing sarcoma NR0B1-luc vs CMV-luc, 48 h; screened at 20 nM (by protocol)
Whole data set: some 59,000 sequences, median the read-out near -0.00055, cut for the lowest 2% near -2. Many of the other results were omitted from the sample, so the lowest values are more common in it than they were.
Recorded seed-corrected z-score, one value per entry.
MEASURED ENDPOINT: seed-corrected z-score

UAUAUCAUCAAGCGUAACC against TCF20	-1.21
UUUGUUCUGGAUGCCCUGC against WARSP1	0.407
UAUUUGUAGCCCAAGAAGG against YIF1B	0.101
AAAGAUAUCAGUGACGAAG against HIST1H2BA	-0.152
UCUAGAGUUAGGGUAUCUG against ARMC5	0.117
AACUUGAUCAAGUAGCUCG against EBLN1	-0.0938
AGUGGAACAAGAUCUCAGU against NOL6	0.803
UUCUCUUCAACCCACUUGG against JAKMIP1	-2.7
UGCUGUAUCCUCUAUAUCC against RFX5	-0.0572
UUUCUGAGGAGACAACUCU against ANKRD36B	0.345
UUUGGUGCACGUAACUUGG against C6orf203	-2.05
UAGUCGAUUAAACAGAGCC against RBPJ	0.0342

---

Assay: Identification of proteins required for the processing of the EWS-FLI1 nascent transcript;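 also: robust z of luciferase light less the median z of siRNAs with the same seed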
Details: TC32 Ewing sarcoma NR0B1-luc vs CMV-luc, 48 h; screened at 20 nM (by protocol)
Whole data set: some 59,000 sequences, median the read-out near -0.00055, cut for the lowest 2% near -2. The entries come from a sample that favours the lowest values as a whole.
MEASURED ENDPOINT: seed-corrected z-score

UUAUUUCUCAGCUCGUUGG against STX6	-2.43
UAAGACUCAAAGUUCCCAG against LOC642502	-0.393
UUUAUGCUGAGUCCCAUAG against APBB1IP	-2.98
UCUGAGAUAACAGUUCCUG against LOC644681	-0.647
UACCGAUUUGGUAAUAUCG against LY75	-0.557
UGAAAUAUCUCCAGGAUCU against EFCAB12	0.249
UACUGUUCCACUAGCUUCG against SF3A1	-1.91
AAAAGUCCAAACAAUACCC against GPR156	-0.327
UUCUCUAGGAUGGAAAACC against LOC728752	0.253
UCACUUGAUAACAAUCUCC against ZCWPW2	-0.645
UGACUAUUAGGUCUUUAGC against BCAT1	-0.111
AUGGCUUCAACAAGCAUCU against HGH1	-0.109
UUUAAGGGUAUUACGAGUG against GGPS1	0.153
UAUAUUGCUCGGUCAAGUC against RBM4	-0.89
AAGUUGGUGAUUAAUCUCC against DERL2	-0.311
UCUGGUAGUUCUUCAAGGC against LINC00238	0.0623
UUGGUGGAUAUACUCAAUC against EXO5	-2.07
UUUGGAAUCAUCCAGGAAA against C8orf82	0.192
UCCGGUUUAUAUUUGGUGC against EPSTI1	-0.285
AAUUUGCUAAAUCGUAUUC against CLLU1	-0.521
UGGAGAGUAUGGGUAGUCG against CDC34	-1.87
AUCCAGAUUAGUUUCCCUC against VIM	-2.52
UAUACGUAAUGAAAGUUUC against SNX7	0.211
UUUUUCCAUACUUCAAGCC against QRICH1	-0.708
UUAGAUACUCUGCAGGAUG against EPHA5	0.46
UUUGAGUCCUCAUGGGUGG against GTF3C4	1.63

---

Experiment: Identification of proteins required for the processing of the EWS-FLI1 nascent transcript;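 also: robust z of luciferase light less the median z of siRNAs with the same seed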
Conditions: TC32 Ewing sarcoma NR0B1-luc vs CMV-luc, 48 h; screened at 20 nM (by protocol)
The full ranking holds about 59,000 sequences; the median of the read-out is about -0.00055, and the lowest 2% start at about -2. Only a selection was taken, and the lowest values are over-represented in it overall.
// classify: if (seed-corrected z-score < 0.02) y else n

ACAUAGGUUGGGUCGAUCC against XYLT2	y
AAAGGGAUGCUCCAAGCGC against NME3	n
AAUUCAUCCAUGAUUCUGC against FAM134B	y
AUCCUUAAUGUAACUAUUG against C12orf60	n
UCAUCAUCCAAAGAUGUAC against C20orf196	y
UCUGGAUCUAUUAAGCUGC against LRRFIP2	y
UACAGGGUCAGGGAGAGGU against PTPN6	y
AAGUUGCCAAGAACAUGCU against LINC01168	y
UAAGGCUCCAGCAUAACAG against MIR924HG	n
AACGUAAUAAAAGUCUUGC against SERHL	n
UUAUGUAUCAUUGGAACCA against LOC388780	n
AUCCUCACCAUGGACAACG against CELA3A	y
UGACUGACAACUUCUGGAU against PAK6	y
AAUAGAUUCAACAAGGGUG against BCL10	n
UGACGGAUCAGUCUUAGCC against ATP5O	y
UAUCUUUUCCCAGUUGGAC against MSRB3	y
UCUGCUUUGUCUCUCAGCC against FAM92A1	y
UGUUCCUUUAUUGUAGCCC against ALG13	n
AUGUUUUUCAAGUAGCUUC against CDRT4	y
UCUGGUGGUGGUCUGAGUC against ZFP64	y
UCCACGAAUAGCAAUAUGC against KIDINS220	y
UGGUGUAACUUCAACAUCG against ATP13A4	y
CAAGUUUUUAUUAUCCUGC against EPHA10	y
UUUACGUCCAAAGUAGCAC against SEC23B	y
AUCUCUUUUAUCAGGGUUG against VEGFB	y
UAACCUAUCAUAUUGGUAG against DDX17	n
UUUCUUAGAUGAGACAUUG against EBLN2	y
UGUCAUAUGGGCUUGCUCC against CEP250	y
UUAAUAAGACUUCAAGAUG against MYOCD	n
UUCUUUACAUGCUGCAUUC against GALNT11	n
UUAUUAGAGAGAAAAGCAC against PRAC1	n
UCCGUUCAUAGUCUUCUCC against CSPP1	y
UCCUUUAGCACCUUCACCG against RAD23A	y
UAUAUCACCAUAUAAUCAC against ADRA2B	y
UUUGGGAUUUCCAUUGUCU against LRP2BP	n
UUUCAUAGAAUCUAUCCAG against C20orf196	n
AUUGUAACCAGUCACGUAC against FLRT3	n
UCAAUCUCAACGGUCACCG against NLRP1	n
AAACACUCCACUGAUGUGC against IFT140	y
AAAGUUACUCUUCCAAACC against POC1A	y
UGAAUAUCAACAGUCCCUC against ZNF731P	n
UUGCCUAUCUGGUUGAUGG against MATN1	y
UUUCGGUACUCGGUUAACC against EIF3FP3	n
AUGCUAGUCAAAAGAAUCG against FBXO40	n
UUCCGUGUGAAACAGAUGG against ARMC4	n
UACUCUCACAGCUUGCACC against KCTD18	y
UACUGGUCUAGGAGGUAUG against ERRFI1	y
UCUUUAUCACGGUCAAAUG against GPALPP1	y
UCCCGGAAAGCCUUCAUGG against INF2	y
UACUUGACGAUGUUGCGCG against ADGRL1	y

---

Experiment: Identification of proteins required for the processing of the EWS-FLI1 nascent transcript;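 also: robust z of luciferase light less the median z of siRNAs with the same seed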
Conditions: TC32 Ewing sarcoma NR0B1-luc vs CMV-luc (EWS-FLI1 target promoter against control promoter), 48 h; screened at 20 nM (by protocol)
In all, about 59,000 sequences were measured (the read-out: median about -0.00055, lowest 2% from about -2 on). The entries come from a sample that favours the lowest values as a whole.
MEASURED ENDPOINT: seed-corrected z-score

AAGCUGAUAAUAGGCUUUC against DNAJA3	-0.565
UAGGAAACCAAGCACAUCU against SH3BGRL	1.88
UAUUGUCCAAAUGCUCAGG against SALL1	-0.159
UUUUCGAUCAUCACCACAC against YWHAQ	-0.216
UCAGCUAACUCUGUCUCUG against SNX19P3	-0.302
UUUCCAUAGACUUUCCCAC against KLF9	-0.352
AGAUCUACUACAGCCGUUC against RARS2	0.391
AAGUCUUCAAGAUCUAUUC against FGL2	0.334
UGUAUUACAAUAUUCCUUC against LACE1	-0.00635
UACUGACUCCUUGUAUGCC against CSTF2T	0.0375
UACUUGGACAAGUCCAAGA against LSM7	0.593
AGAUUGUUAAGCAGCGUGU against C7orf43	0.291
UGAUGGUCACAAUCCUCUC against PCBP3	-2.79
UCAAGUAAACUAGUCGUUU against VKORC1L1	-0.26
UUUGUGACCAGCAAUCUGC against PLA2G2F	-0.775
UUUCAUCUCACCUUUAUUG against RPL23P5	-2.17
UCACUGUCAAACUCGUGCC against ARHGAP33	-2.08
UGUCCAAUUAGGGACCAGC against SLF2	-0.225
UACUGAGUAGUAGUUGGGC against DISP3	-2.25
AAAGAUACAGGUUAAAGGC against HIST2H2BF	-0.321
UAUAUGUCUUGAUUAUCCU against NMS	0.309
AAGGAUAUGAAGGUAAUUC against ZNF518A	-0.0667
UAAUUCACUAACUUCAAGC against SLC37A3	0.139
UGAAUGUCAAUGUCGUAUG against PCDHB1	-0.133
UACUGAACUCCAUCUGACU against C1orf198	1.54
AAUGCUAUAAAAUCCGUGG against C11orf95	0.671
